The reported numbers originate from patent US7759345B2.

Tested on: P-388
Test: Inhibition of cell growth by counting cells, P-388
Type: cell-based, mouse
Conditions: Mus musculus, P388, 72 h; three days of incubation; read-out: IC50 (molar) P-388
Procedure: 1°.—Inhibition of Cell Growth by Counting Cells. This form of the assay employs 24 well multidishes of 16 mm diameter (Bergeron, 1984; Schroeder, 1981). […] For quantifying the activity, after the incubation time, cells are trypsinized and counted in a Coulter Counter ZM. […]
pIC50: −log10 of the molar value.
measured metric: pIC50

compound="COc1cc2c(cc1OC(=O)OC(C)(C)C)CCN[C@]21CS[C@@H]2c3c(OC(C)=O)c(C)c4c(c3[C@H](COC1=O)N1C2[C@@H]2N[C@@H](Cc3cc(C)c(OC)c(O)c32)[C@@H]1C#N)OCO4 (stereo partly shown)" endpoint_result=9.23
compound="CCCC(=O)Oc1cc2c(cc1OC)[C@@]1(CS[C@@H]3c4c(OC(C)=O)c(C)c5c(c4[C@H](COC1=O)N1C3[C@@H]3N[C@@H](Cc4cc(C)c(OC)c(O)c43)[C@@H]1C#N)OCO5)NCC2 (stereo partly shown)" endpoint_result=9.92
compound="CCCCCCCCCCCCCCCC(=O)Oc1c(C)c2c(c3c1[C@H]1SC[C@]4(NCCc5cc(O)c(OC)cc54)C(=O)OC[C@@H]3N3C1[C@H]1c4c(cc(C)c(OC)c4O)C[C@@H]([C@@H]3C#N)N1C)OCO2 (stereo partly shown)" endpoint_result=6.99
compound="C=CCOC(=O)Oc1cc2c(cc1OC)[C@@]1(CS[C@@H]3c4c(OC(C)=O)c(C)c5c(c4[C@H](COC1=O)N1C3[C@H]3c4c(cc(C)c(OC)c4O)C[C@@H]([C@@H]1C#N)N3C)OCO5)NCC2 (stereo partly shown)" endpoint_result=9.85
